Assay: Solubility of crystal form I in common solvents
Type: physicochemical
Conditions: organic solvent or mixture, thermodynamic from solid; isopropanol, ambient temperature
Experimental: The solubility of the crystal form I in 11 common solvents at ambient temperature was tested. […] The peak area was recorded and the standard curve was plotted, and the curve equation: y=11.30762x, R^2=0.99998, which has a good linear correlation in a range of 4.9 μg/ml˜499 μg/ml was obtained. […] The supernatant was drawn and diluted at a certain multiple, injected to the HPLC, the peak area was recorded, the sample concentration was calculated, and the pH of undiluted samples was determined.
Assay readout: solubility

Ask: Provide one value: measured solubility of CS(=O)(=O)C1(c2cc(-c3cnc(N)cc3Cl)nc(N3CCOCC3)n2)CC1 [crystal form I]
Reply: > 1840 µg/mL

----------
Assay: Solid phase stability experiment (sealed at 60° C., HPLC purity)
Format: physicochemical
Settings: 60° C.-21 days, sealed
What Total impurities (%) was measured for each of the following?
Express your answer in %, writing the number without its unit.

Ask: Provide one value: measured Total impurities (%) of CS(=O)(=O)C1(c2cc(-c3cnc(N)cc3Cl)nc(N3CCOCC3)n2)CC1 [crystal form D-2]
Reply: 1.75

Ask: Provide one value: measured Total impurities (%) of CS(=O)(=O)C1(c2cc(-c3cnc(N)cc3Cl)nc(N3CCOCC3)n2)CC1 [crystal form C]
Reply: 0.25

Ask: Provide one value: measured Total impurities (%) of CS(=O)(=O)C1(c2cc(-c3cnc(N)cc3Cl)nc(N3CCOCC3)n2)CC1 [crystal form A]
Reply: 0.25

Ask: Provide one value: measured Total impurities (%) of CS(=O)(=O)C1(c2cc(-c3cnc(N)cc3Cl)nc(N3CCOCC3)n2)CC1 [crystal form B-1]
Reply: 0.26

----------
Assay: Solubility experiment in 0.1M HCl, buffers and water
Format: physicochemical
Details: water
Protocol: The solubilities of the following four kinds of salt and free base sample in 0.1M HCl, pH 4.5 buffer, pH 6.8 buffer, and water were tested at ambient temperature. In the test, the calibration curves of free base and four kinds of salt were plotted. 3 mg of solid samples of free base and four kinds of salt were weighed, respectively, and then 1 ml of the solvent was added, centrifuged after 30 min ultrasound. […]
Assay readout: solubility in water compared with the free base (in words)

| Compound | Assay value |
| --- | --- |
| CS(=O)(=O)C1(c2cc(-c3cnc(N)cc3Cl)nc(N3CCOCC3)n2)CC1 [crystal form A] | obviously improved |
| CS(=O)(=O)C1(c2cc(-c3cnc(N)cc3Cl)nc(N3CCOCC3)n2)CC1 [crystal form B-1] | obviously improved |
| CS(=O)(=O)C1(c2cc(-c3cnc(N)cc3Cl)nc(N3CCOCC3)n2)CC1 [crystal form C] | obviously improved |

----------
Test: Solubility of crystal form I in common solvents
Type: physicochemical
Settings: organic solvent or mixture, thermodynamic from solid; ethanol, ambient temperature
Assay readout: solubility

Ask: Provide one value: measured solubility of CS(=O)(=O)C1(c2cc(-c3cnc(N)cc3Cl)nc(N3CCOCC3)n2)CC1 [crystal form I]
Reply: > 4680 µg/mL

----------
What Purity (%) was measured for each of the following?
Test: Solid phase stability experiment (sealed at 60° C., HPLC purity)
Format: physicochemical
Conditions: 60° C.-7 days, sealed
Express your answer in %, writing the number without its unit.

Ask: Provide one value: measured Purity (%) of CS(=O)(=O)C1(c2cc(-c3cnc(N)cc3Cl)nc(N3CCOCC3)n2)CC1 [crystal form C]
Reply: 99.74

Ask: Provide one value: measured Purity (%) of CS(=O)(=O)C1(c2cc(-c3cnc(N)cc3Cl)nc(N3CCOCC3)n2)CC1 [crystal form A]
Reply: 99.78

Ask: Provide one value: measured Purity (%) of CS(=O)(=O)C1(c2cc(-c3cnc(N)cc3Cl)nc(N3CCOCC3)n2)CC1 [crystal form B-1]
Reply: 99.50

Ask: Provide one value: measured Purity (%) of CS(=O)(=O)C1(c2cc(-c3cnc(N)cc3Cl)nc(N3CCOCC3)n2)CC1 [crystal form D-2]
Reply: 98.22

----------
Experiment: Solid phase stability experiment (sealed at 60° C., HPLC purity)
Assay type: physicochemical
Conditions: 60° C., at 7 days and 21 days

| Compound | solid phase stability (in words) |
| --- | --- |
| CS(=O)(=O)C1(c2cc(-c3cnc(N)cc3Cl)nc(N3CCOCC3)n2)CC1 [crystal form C] | good stability |
| CS(=O)(=O)C1(c2cc(-c3cnc(N)cc3Cl)nc(N3CCOCC3)n2)CC1 [crystal form A] | good stability |
| CS(=O)(=O)C1(c2cc(-c3cnc(N)cc3Cl)nc(N3CCOCC3)n2)CC1 [crystal form D-2] | good stability |
| CS(=O)(=O)C1(c2cc(-c3cnc(N)cc3Cl)nc(N3CCOCC3)n2)CC1 [crystal form B-1] | good stability |

----------
Assay: Solid phase stability experiment (sealed at 60° C., HPLC purity)
Format: physicochemical
Settings: 60° C.-21 days, sealed
What Purity (%) was measured for each of the following?
Express your answer in %, writing the number without its unit.

Ask: Provide one value: measured Purity (%) of CS(=O)(=O)C1(c2cc(-c3cnc(N)cc3Cl)nc(N3CCOCC3)n2)CC1 [crystal form D-2]
Reply: 98.25

Ask: Provide one value: measured Purity (%) of CS(=O)(=O)C1(c2cc(-c3cnc(N)cc3Cl)nc(N3CCOCC3)n2)CC1 [crystal form B-1]
Reply: 99.74

Ask: Provide one value: measured Purity (%) of CS(=O)(=O)C1(c2cc(-c3cnc(N)cc3Cl)nc(N3CCOCC3)n2)CC1 [crystal form C]
Reply: 99.75

Ask: Provide one value: measured Purity (%) of CS(=O)(=O)C1(c2cc(-c3cnc(N)cc3Cl)nc(N3CCOCC3)n2)CC1 [crystal form A]
Reply: 99.75

----------
Test: Solubility of crystal form I in common solvents
Assay type: physicochemical
Settings: organic solvent or mixture, thermodynamic from solid; acetone, ambient temperature
Assay readout: solubility (mg/mL)
Express your answer in mg/mL, writing the number without its unit.

Ask: Provide one value: measured solubility of CS(=O)(=O)C1(c2cc(-c3cnc(N)cc3Cl)nc(N3CCOCC3)n2)CC1 [crystal form I]
Reply: 28.5

----------
Test: Solubility experiment in 0.1M HCl, buffers and water
Assay type: physicochemical
Conditions: pH 6.8 buffer, pH 6.8, aqueous buffer, thermodynamic from solid, pH 6.8 buffer, ambient temperature; read-out: Solubility (mg/mL) pH 6.8
Assay readout: solubility at 30 min (mg/mL)
Express your answer in mg/mL, writing the number without its unit.

Ask: Provide one value: measured solubility at 30 min of CS(=O)(=O)C1(c2cc(-c3cnc(N)cc3Cl)nc(N3CCOCC3)n2)CC1
Reply: 0.015

Just for reference, patent US10544137B2 is where these values come from.
